The values you see were collected from the supplement of paper PMC5844555.

system: MYCN; assay: 3' UTR reporter interaction score (median-centred robust z-score of log2 firefly/Renilla activity); higher = less repression of the 3' UTR reporter; settings: HEK293T; 48 h
assayReadout: 3' UTR reporter interaction score

I have this sequence here, UGUGUCACUCGAUGACCACUGU , and I need its recorded 3' UTR reporter interaction score.
0.203

Consider the sequence UCUGGCUCCGUGUCUUCACUCC and give its measured 3' UTR reporter interaction score.
1.42

Which 3' UTR reporter interaction score value belongs to UGUGACUGGUUGACCAGAGGG ?
-1.12

Suppose we examine the sequence UACUGCAUCAGGAACUGAUUGGAU ; what 3' UTR reporter interaction score value has been reported?
0.685

Which 3' UTR reporter interaction score is listed for ACUUACAGACAAGAGCCUUGCUC ?
-0.0923

Data request, read-out 3' UTR reporter interaction score, for UGAGGUAGUAGGUUGUGUGGUU
-4.48

I have this sequence here, UUCUCCAAAAGGGAGCACUUUC , and I need its recorded 3' UTR reporter interaction score.
0.94

====

test system: TP53; test: 3' UTR reporter interaction score (median-centred robust z-score of log2 firefly/Renilla activity); higher = less repression of the 3' UTR reporter; settings: HEK293T; 48 h
Label condition met when 3' UTR reporter interaction score >= -0.4; otherwise condition not met.

Check out these entries, answers already filled in.
Could you please find out whether UUAUAAUACAACCUGAUAAGUG has 3' UTR reporter interaction score that meets -0.4 or exceeds it?
condition not met

Please check the record UGUAACAGCAACUCCAUGUGGA and state if its 3' UTR reporter interaction score is at or above -0.4.
condition not met

Entry UCAAGAGCAAUAACGAAAAAUGU : is its 3' UTR reporter interaction score no less than -0.4?
condition met

---
Identify whether the reported 3' UTR reporter interaction score of the following sequence is -0.4 or greater: AGCUGUCUGAAAAUGUCUU
condition met

Quick check: does AAGCAGCUGCCUCUGAGGC have 3' UTR reporter interaction score greater than or equal to -0.4?
condition met

// inclusive: 3' UTR reporter interaction score at least -0.4? input: ACUGCCCUAAGUGCUCCUUCU
condition met

Please indicate if the recorded 3' UTR reporter interaction score for AACAUUCAACGCUGUCGGUGAGU meets or exceeds -0.4.
condition met

Item CUGAAGUGAUGUGUAACUGAUCAG with 3' UTR reporter interaction score of -0.4 or above?
condition met

====

tested on: HRAS; assay: 3' UTR reporter interaction score (median-centred robust z-score of log2 firefly/Renilla activity); higher = less repression of the 3' UTR reporter; details: HEK293T; 48 h
assayReadout: 3' UTR reporter interaction score

Requested field: 3' UTR reporter interaction score. Item: UGCUGACUCCUAGUCCAGGGC
-1.77

***
Which value of 3' UTR reporter interaction score has been reported for GUUCUCCCAACGUAAGCCCAGC in the records?
0.00988

Which 3' UTR reporter interaction score is reported for this sequence? CAUAAAGUAGAAAGCACUAC
-0.266

Requested field: 3' UTR reporter interaction score. Item: UAUACAAGGGCAAGCUCUCUGU
0.186

Consider the sequence shown here: UCCCUGAGACCCUAACUUGUGA What is its recorded 3' UTR reporter interaction score?
1.12

Quick one: 3' UTR reporter interaction score for UUGGUCCCCUUCAACCAGCUA ?
1.24

// returns reported 3' UTR reporter interaction score for input GGCUAGCAACAGCGCUUACCU
-0.311

Name the reported 3' UTR reporter interaction score value associated with the sequence UCUCACACAGAAAUCGCACCCGUC
-1.52

Returns the measured 3' UTR reporter interaction score for the input sequence. Input: AAUUGCACUUUAGCAAUGGUGA
-0.0471

Can you share its 3' UTR reporter interaction score? I mean this sequence: UGGAAGACUAGUGAUUUUGUUG
0.856

Which measured 3' UTR reporter interaction score value corresponds to UUUGGCACUAGCACAUUUUUGC ?
0.722

Field request: 3' UTR reporter interaction score | item: GUGAGUCUCUAAGAAAAGAGGA
-1.03

Quick check: 3' UTR reporter interaction score of CGGGUGGAUCACGAUGCAAUUU ?
-0.371

I am curious: what 3' UTR reporter interaction score value has been reported for AGGUUACCCGAGCAACUUUGCA ?
-1.62

Quick one: 3' UTR reporter interaction score of CUCCAGAGGGAUGCACUUUCU ?
-0.937

Reported 3' UTR reporter interaction score for UAUUGCACUUGUCCCGGCCUG : what is it?
0.114
